target: HLA-A*02:03; experiment: IEDB peptide-MHC binding, purified MHC/competitive/radioactivity; bounds were set here for any values at or beyond the usual limits of such assays; conditions: source organism: Vaccinia virus WR
Each entry below carries its reported IC50.
Your answer should be a number followed by the unit of measure.

Study these solved cases before continuing.
{"columns": ["Sequence", "IC50"],
 "data": [
  ["YLGHSAGFTA", "0.086 µM"],
  ["RTNDLTALL", "0.0072 µM"],
  ["VVISVIFYFI", "0.755 µM"]
]}

Entry ALMTLDDLAI — recorded IC50 = 0.029 µM

Entry NTCKPTILAT — recorded IC50 = 0.248 µM

Entry FIPIIYSKA — recorded IC50 = 0.0018 µM

* * *

target: HLA-A*02:03; assay: IEDB peptide-MHC binding, purified MHC/competitive/radioactivity; bounds were set here for any values at or beyond the usual limits of such assays; settings: source organism: Vaccinia virus WR
Each entry below carries its reported log10 IC50.
Short version: log10 scale, IC50, nM.

Study these solved cases before continuing.
{"columns": ["Sequence", "Quantitative Result"],
 "data": [
  ["YLYNKYSFKL", -1.46],
  ["LANERYRSA", 2.74],
  ["KLLSTSNVIT", 3.53],
  ["FMSHVKSVT", 2.26],
  ["ILLILSCIFA", 2.49]
]}

Entry LTTVFIKYV — recorded log10 IC50 = 2.83

Entry NINIEVKLFI — recorded log10 IC50 = 3.31

Entry YAAEMVEYL — recorded log10 IC50 = 0.32

Entry FIISTLNKIL — recorded log10 IC50 = 0.26

Entry RLRQDTEDI — recorded log10 IC50 = 2.59

Entry NITPDDGLGL — recorded log10 IC50 = 3.11

Entry IVSKCIVQSV — recorded log10 IC50 = 1.49

Entry CTINVNSLAL — recorded log10 IC50 = 3.02

Entry NTFVNFNSV — recorded log10 IC50 = 2.00

Entry FIQWTGGNI — recorded log10 IC50 = 1.74

* * *

Each entry below carries its reported IC50.
molecular target: HLA-A*68:02; experiment: IEDB peptide-MHC binding, purified MHC/competitive/radioactivity; bounds were set here for any values at or beyond the usual limits of such assays; conditions: source organism: Vaccinia virus WR
Your answer should be a number followed by the unit of measure.

Study these solved cases before continuing.
{"columns": ["Sequence", "IC50"],
 "data": [
  ["TQVKELGIAI", "1.18 µM"],
  ["ALAEHISDSI", "0.272 µM"],
  ["CVDHPFIYV", "0.0051 µM"],
  ["PLHIVCSKT", "1.88 µM"],
  ["DIPTFNSLNT", "0.9 µM"],
  ["TLPELNLSL", "0.309 µM"]
]}

Entry ALVSDCASTI — recorded IC50 = 0.53 µM

Entry KVIKLVKSL — recorded IC50 = 0.366 µM

Entry FMYTKHSML — recorded IC50 = 3.54 µM

* * *

target: HLA-A*02:02; test: IEDB peptide-MHC binding, purified MHC/competitive/radioactivity; bounds were set here for any values at or beyond the usual limits of such assays; settings: source organism: Vaccinia virus WR
Measured Property: pIC50
In simple prose, pIC50 is minus the logarithm base ten of a concentration in moles per litre.

Study these solved cases before continuing.
{"columns": ["Sequence", "pIC50"],
 "data": [
  ["AVLSEYETMV", 9.12],
  ["SIMSMMNIT", 5.30],
  ["YQSFLFWFL", 9.42]
]}

Entry LVKDESIQL — recorded pIC50 = 6.91

Entry IAGIILLIL — recorded pIC50 = 5.38

Entry TLFGRGVIDT — recorded pIC50 = 6.70

Entry GLCNYGGILI — recorded pIC50 = 6.82

Entry VMPEKRNVV — recorded pIC50 = 5.96

Entry KIYTLIYRQL — recorded pIC50 = 6.15

Entry QIMECSRML — recorded pIC50 = 6.21

Entry TIDAINKCV — recorded pIC50 = 7.05

Entry KINEMVDEL — recorded pIC50 = 8.85

* * *

target: HLA-A*02:03; assay: IEDB peptide-MHC binding, purified MHC/competitive/radioactivity; bounds were set here for any values at or beyond the usual limits of such assays; conditions: source organism: Vaccinia virus WR
Measured Property: IC50 (nM)
Quick reminder: number only, in nM, skip the unit.

{"columns": ["Sequence", "Quantitative Result"],
 "data": [
  ["EMKYALINL", 63],
  ["TIKESLLKET", 149],
  ["YLRLYIILA", 52],
  ["KLKVDSDSGL", 56],
  ["NVIGLIVIL", 2400],
  ["ILISLINSLV", 3.1],
  ["RLPSETFPNV", 14],
  ["LAYYNSCMLT", 16]
]}

Entry GLSASDVDM — recorded IC50 = 3540

Entry SMYGKAFNHA — recorded IC50 = 0.93

Entry DINVIGLIV — recorded IC50 = 4040

Entry ILKDPRIASI — recorded IC50 = 1030

Entry GAAITLVVI — recorded IC50 = 3280

Entry NIISYIILFI — recorded IC50 = 133

Entry LILSNKLLYA — recorded IC50 = 122

Entry GALYLGHSA — recorded IC50 = 1900

Entry LATLNTLITL — recorded IC50 = 338

Entry IICEDAMYYA — recorded IC50 = 108

Entry ITRLEVIGL — recorded IC50 = 213

Entry ILATLNTLI — recorded IC50 = 0.23

Entry TIDKSSPLYI — recorded IC50 = 12

* * *

target: HLA-A*68:02; test: IEDB peptide-MHC binding, purified MHC/competitive/radioactivity; bounds were set here for any values at or beyond the usual limits of such assays; conditions: source organism: SARS-CoV1
Measured Property: IC50 (nM)
Quick reminder: number only, in nM, skip the unit.

Study these solved cases before continuing.
{"columns": ["Sequence", "IC50, nM"],
 "data": [
  ["YQCGHYTHI", 2920],
  ["LVIGFLFLA", 26]
]}

Entry SLCSCICTV — recorded IC50 = 1670

Entry IAACAMLLV — recorded IC50 = 389

Entry YLMCLSPLMA — recorded IC50 = 166

Entry VLAWLYAAV — recorded IC50 = 37

Entry ILASFSAST — recorded IC50 = 1220

Entry WLLWPVTLA — recorded IC50 = 151

Entry GLMWLSYFV — recorded IC50 = 44

Entry FLTSLLILV — recorded IC50 = 260

Entry IVAALVFLI — recorded IC50 = 0.58

Entry ALLFLMSFTI — recorded IC50 = 1770

Entry LLFQLCTFT — recorded IC50 = 855

Entry LIVNSVLLFL — recorded IC50 = 169

Entry FMRFFTLGSI — recorded IC50 = 412

Entry YLMCLSPLM — recorded IC50 = 1240

Entry NMLRIMASL — recorded IC50 = 1310

Entry YIFFASFYYI — recorded IC50 = 2.2

Entry GTSAAAYFV — recorded IC50 = 14

Entry FTLLFQLCT — recorded IC50 = 2740

Entry GLSDRVVFV — recorded IC50 = 1170

* * *

target: HLA-A*02:06; test: IEDB peptide-MHC binding, purified MHC/competitive/radioactivity; bounds were set here for any values at or beyond the usual limits of such assays; settings: source organism: Hepacivirus hominis
Each entry below carries its reported IC50.
Quick reminder: number only, in nM, skip the unit.

Study these solved cases before continuing.
{"columns": ["Sequence", "IC50, nM"],
 "data": [
  ["YLNTPGLPV", 847],
  ["VLQAGITRV", 393],
  ["ALLSCLTTPA", 231],
  ["MLLAYLVRI", 5],
  ["GLLLLCVGV", 892]
]}

Entry RLLLLGLLLL — recorded IC50 = 1050

Entry RLLAPITAYA — recorded IC50 = 103

Entry RLWHYPCTV — recorded IC50 = 131

Entry SISGVLWTV — recorded IC50 = 53

Entry FLLALLSCL — recorded IC50 = 24

Entry ALMIAAQVVV — recorded IC50 = 614

Entry TSISGVLWTV — recorded IC50 = 82

Entry CLWWTCYMLV — recorded IC50 = 2700

Entry YMLVLAEALI — recorded IC50 = 512

Entry FLLALLSCI — recorded IC50 = 15

Entry VLVGGVLAAL — recorded IC50 = 141

Entry YTLLGCWSFV — recorded IC50 = 146

* * *

Each entry below carries its reported pIC50.
biological target: HLA-A*02:01; assay: IEDB peptide-MHC binding, purified MHC/competitive/radioactivity; bounds were set here for any values at or beyond the usual limits of such assays; conditions: source organism: Vaccinia virus WR
In simple prose, pIC50 is minus the logarithm base ten of a concentration in moles per litre.

Study these solved cases before continuing.
{"columns": ["Sequence", "Measured Property", "Quantitative Result"],
 "data": [
  ["YVSVMNFIPI", "pIC50", 6.90],
  ["NLVQYRILPM", "pIC50", 5.84],
  ["ELYNKPLYEV", "pIC50", 9.10],
  ["IAMENLKAML", "pIC50", 6.17],
  ["AITDAAVAVA", "pIC50", 5.42]
]}

Entry SLSKQDISL — recorded pIC50 = 7.17

Entry MMVILPDKI — recorded pIC50 = 6.79

Entry VLMEAQQGI — recorded pIC50 = 8.15

Entry DTVFDYYVL — recorded pIC50 = 7.27

Entry TLYDFDYYI — recorded pIC50 = 9.74

Entry KTFKDESIFI — recorded pIC50 = 7.03
